B1: EPB41L3 (parent)
chain: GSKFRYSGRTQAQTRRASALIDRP

# Variants of: B1
# assay.remarks: protein stability index of a GFP-peptide fusion (GPS, HEK-293T) (PSI 1-6); higher = more stable;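 note: lentivirally expressed fusions sorted by FACS into six bins by GFP to DsRed ratio, PSI derived from sequencing read proportions per bin multiplied by bin number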
# test.conditions: c terminus: a fixed tail appended
quantity: protein stability index

## Task Which value of protein stability index has been reported for GSKFRYSGRTQAQTRRASALIDFP [R23F] in the records?
## Result 2.69

## Task So what does the record say about protein stability index for GSKFRYSGRTQAQTRRASWLIDRP [A19W] ?
## Result 2.45

## Task Look at this variant and give its reported protein stability index. GSKSRYSGRTQAQTRRASALIDRP [F4S]
## Result 4.04

## Task Recorded protein stability index of GSKFRYSGRTQAKTRRASALIDRP [Q13K] , please.
## Result 3.19

## Task I am curious: what protein stability index value has been reported for GSKFRYSGRTQAVTRRASALIDRP [Q13V] ?
## Result 3.53

## Task What protein stability index value was documented for this variant, GGKFRYSGRTQAQTRRASALIDRP [S2G] ?
## Result 3.31

## Task Endpoint output: protein stability index of GSKFRYSERTQAQTRRASALIDRP [G8E] . Value?
## Result 3.52

## Task Returns the measured protein stability index for the input variant. Input: GSKFRYSGRTQAQTRRASALIDRI [P24I]
## Result 2.71

## Task Form field: reported protein stability index of GSKFRYSGRTQAQTRRACALIDRP [S18C]
## Result 2.5

## Task Please report the recorded protein stability index for GSKFRYSGRTQAQTRRASPLIDRP [A19P] .
## Result 2.68

## Task Tell me the measured protein stability index of GSKFRYSGRTQVQTRRASALIDRP [A12V] , please.
## Result 1.93

## Task Which protein stability index is reported for this variant? GSKFRYSGRTQAQTRRASALILRP [D22L]
## Result 2.99

## Task Reported protein stability index, variant GSKFRYSGETQAQTRRASALIDRP [R9E] : ____
## Result 3.53

## Task Fill in the blank: the reported protein stability index of GSKFRYSGRTQAQTDRASALIDRP [R15D] is ____.
## Result 3.2

## Task Endpoint output: protein stability index of GSKFRYSGRGQAQTRRASALIDRP [T10G] . Value?
## Result 3.66

## Task protein stability index lookup needed for GSKFRYSGRTQAQTRRASALIDWP [R23W] , thanks.
## Result 2.77

## Task protein stability index for GSKFHYSGRTQAQTRRASALIDRP [R5H] ?
## Result 3.1

## Task Which measured protein stability index value corresponds to GSKFRYSGRTQAQTRRASALIDRH [P24H] ?
## Result 3.47

## Task Form field: reported protein stability index of GSKFRYSGRTQAQDRRASALIDRP [T14D]
## Result 3.41

## Task Report protein stability index for GSKFRYSGRTQAQTRRCSALIDRP [A17C] please.
## Result 2.09

## Task // protein stability index lookup, key: GSKFRYSGRTQAQTRRASALIHRP [D22H]
## Result 3.7

## Task State the recorded protein stability index for this entry: GSKFRYSGRTQAQTRRASALIDRN [P24N]
## Result 2.8
